Kindly state melting point for each of the entries shown.

Record melting point per entry; entries follow.
1. Cc1c(-c2ccc(Cl)cc2F)nn(C)c1C#N
2. Cc1c(-c2cc(O)c(Cl)cc2Cl)nn(C)c1C#N
3. C#CCOc1cc(-c2nn(C)c(C#N)c2C)c(Cl)cc1Cl
4. C#CCOc1cc(-c2nn(C)c(C#N)c2C)c(F)cc1Cl

Result string:
1. 152 to 153 °C
2. 263 to 265 °C
3. 256 to 257 °C
4. 145 to 146 °C

Reference source for all entries: patent US6339046B1
